assay: Inhibition of cyclophilin (unknown origin) assessed as inhibition of HCV FLR1 subgenomic viral replicon replication in presence of 10% FBS by luciferase reporter gene assay
Set-up: species or system Homo sapiens
# EC50 annotations

{"columns": ["smiles_notation", "unit_of_measure", "EC50"],
 "data": [
  ["C/C=C/C[C@@H](C)[C@@H](O)[C@H]1C(=O)N[C@@H]([C@@H](C)O)C(=O)N(C)[C@H](COC)C(=O)N(C)[C@@H](CC(C)C)C(=O)N[C@@H](CC(C)C)C(=O)N(C)[C@@H](CC(C)C)C(=O)N[C@@H](C)C(=O)N[C@H](C)C(=O)N[C@@H](C[C@H](C)CN2CCOC(COC)(COC)C2)C(=O)N[C@@H](CC(C)C)C(=O)N(C)[C@@H](C(C)C)C(=O)N1C", "µg/mL", 0.063],
  ["C/C=C/C[C@@H](C)[C@@H](O)[C@H]1C(=O)N[C@@H]([C@@H](C)O)C(=O)N(C)[C@H](COC)C(=O)N(C)[C@@H](CC(C)C)C(=O)N[C@@H](CC(C)C)C(=O)N(C)[C@@H](CC(C)C)C(=O)N[C@@H](C)C(=O)N[C@H](C)C(=O)N[C@@H](C[C@H](C)COC(=O)N(C)CCOC)C(=O)N[C@@H](CC(C)C)C(=O)N(C)[C@@H](C(C)C)C(=O)N1C", "µg/mL", 0.06],
  ["C/C=C/C[C@@H](C)[C@@H](O)[C@H]1C(=O)N[C@@H]([C@@H](C)O)C(=O)N(C)[C@H](COC)C(=O)N(C)[C@@H](CC(C)C)C(=O)N[C@@H](CC(C)C)C(=O)N(C)[C@@H](CC(C)C)C(=O)N[C@@H](C)C(=O)N[C@H](C)C(=O)N[C@@H](C[C@H](C)COC(=O)N2CCO[C@@H](COC)C2)C(=O)N[C@@H](CC(C)C)C(=O)N(C)[C@@H](C(C)C)C(=O)N1C", "µg/mL", 0.058],
  ["C/C=C/C[C@@H](C)[C@@H](O)[C@H]1C(=O)N[C@@H]([C@@H](C)O)C(=O)N(C)[C@H](COC)C(=O)N(C)[C@@H](CC(C)C)C(=O)N[C@@H](CC(C)C)C(=O)N(C)[C@@H](CC(C)C)C(=O)N[C@@H](C)C(=O)N[C@H](C)C(=O)N[C@@H](C[C@H](C)CN2CCOCC2)C(=O)N[C@@H](CC(C)C)C(=O)N(C)[C@@H](C(C)C)C(=O)N1C", "µg/mL", 0.11]
]}

---

assay: Inhibition of cyclophilin (unknown origin) assessed as inhibition of HCV FLR1 subgenomic viral replicon replication in presence of 50% human serum albumin by luciferase reporter gene assay
# EC50 annotations

{"columns": ["smiles_notation", "EC50"],
 "data": [
  ["C/C=C/C[C@@H](C)[C@@H](O)[C@H]1C(=O)N[C@@H]([C@@H](C)O)C(=O)N(C)[C@H](COC)C(=O)N(C)[C@@H](CC(C)C)C(=O)N[C@@H](CC(C)C)C(=O)N(C)[C@@H](CC(C)C)C(=O)N[C@@H](C)C(=O)N[C@H](C)C(=O)N[C@@H](C[C@H](C)CN2CCOC(COC)(COC)C2)C(=O)N[C@@H](CC(C)C)C(=O)N(C)[C@@H](C(C)C)C(=O)N1C", "0.1 µg/mL"],
  ["C/C=C/C[C@@H](C)[C@@H](O)[C@H]1C(=O)N[C@@H]([C@@H](C)O)C(=O)N(C)[C@H](COC)C(=O)N(C)[C@@H](CC(C)C)C(=O)N[C@@H](CC(C)C)C(=O)N(C)[C@@H](CC(C)C)C(=O)N[C@@H](C)C(=O)N[C@H](C)C(=O)N[C@@H](C[C@H](C)COC(=O)N(C)CCOC)C(=O)N[C@@H](CC(C)C)C(=O)N(C)[C@@H](C(C)C)C(=O)N1C", "0.097 µg/mL"],
  ["C/C=C/C[C@@H](C)[C@@H](O)[C@H]1C(=O)N[C@@H]([C@@H](C)O)C(=O)N(C)[C@H](COC)C(=O)N(C)[C@@H](CC(C)C)C(=O)N[C@@H](CC(C)C)C(=O)N(C)[C@@H](CC(C)C)C(=O)N[C@@H](C)C(=O)N[C@H](C)C(=O)N[C@@H](C[C@H](C)CN2CCOCC2)C(=O)N[C@@H](CC(C)C)C(=O)N(C)[C@@H](C(C)C)C(=O)N1C", "0.25 µg/mL"],
  ["C/C=C/C[C@@H](C)[C@@H](O)[C@H]1C(=O)N[C@@H]([C@@H](C)O)C(=O)N(C)[C@H](COC)C(=O)N(C)[C@@H](CC(C)C)C(=O)N[C@@H](CC(C)C)C(=O)N(C)[C@@H](CC(C)C)C(=O)N[C@@H](C)C(=O)N[C@H](C)C(=O)N[C@@H](C[C@H](C)COC(=O)N2CCO[C@@H](COC)C2)C(=O)N[C@@H](CC(C)C)C(=O)N(C)[C@@H](C(C)C)C(=O)N1C", "0.064 µg/mL"]
]}

---

System: Splenocyte
assay: Immunosuppressive activity in mouse splenocytes assessed as inhibition of concanavalinA-induced cell proliferation
Type: cell-based
# IC50 annotations

{"columns": ["smiles_notation", "IC50 (µg/mL)"],
 "data": [
  ["C/C=C/C[C@@H](C)[C@@H](O)[C@H]1C(=O)N[C@@H]([C@@H](C)O)C(=O)N(C)[C@H](COC)C(=O)N(C)[C@@H](CC(C)C)C(=O)N[C@@H](CC(C)C)C(=O)N(C)[C@@H](CC(C)C)C(=O)N[C@@H](C)C(=O)N[C@H](C)C(=O)N[C@@H](C[C@H](C)CN2CCOC(COC)(COC)C2)C(=O)N[C@@H](CC(C)C)C(=O)N(C)[C@@H](C(C)C)C(=O)N1C", 1.7],
  ["C/C=C/C[C@@H](C)[C@@H](O)[C@H]1C(=O)N[C@@H]([C@@H](C)O)C(=O)N(C)CC(=O)N(C)[C@@H](CC(C)C)C(=O)N[C@@H](CC(C)C)C(=O)N(C)[C@@H](CC(C)C)C(=O)N[C@@H](C)C(=O)N[C@H](C)C(=O)N[C@@H](C[C@H](C)CO)C(=O)N[C@@H](CC(C)C)C(=O)N(C)[C@@H](C(C)C)C(=O)N1C", 0.28],
  ["C/C=C/C[C@@H](C)[C@@H](O)[C@H]1C(=O)N[C@@H]([C@@H](C)O)C(=O)N(C)[C@H](COC)C(=O)N(C)[C@@H](CC(C)C)C(=O)N[C@@H](CC(C)C)C(=O)N(C)[C@@H](CC(C)C)C(=O)N[C@@H](C)C(=O)N[C@H](C)C(=O)N[C@@H](C[C@H](C)COC(=O)N2CCO[C@@H](COC)C2)C(=O)N[C@@H](CC(C)C)C(=O)N(C)[C@@H](C(C)C)C(=O)N1C", 0.88]
]}

---

Test system: Splenocyte
assay: Immunosuppressive activity in mouse splenocytes assessed as inhibition of concanavalinA-induced cell proliferation
Assay type: cell-based
# label = TRUE if IC50 < 0.8 µg/mL else FALSE

{"columns": ["smiles_notation", "category"],
 "data": [
  ["C/C=C/C[C@@H](C)[C@@H](O)[C@H]1C(=O)N[C@@H]([C@@H](C)O)C(=O)N(C)CC(=O)N(C)[C@@H](CC(C)C)C(=O)N[C@@H](CC(C)C)C(=O)N(C)[C@@H](CC(C)C)C(=O)N[C@@H](C)C(=O)N[C@H](C)C(=O)N[C@@H](C[C@H](C)COC(=O)N2CCN(C)CC2)C(=O)N[C@@H](CC(C)C)C(=O)N(C)[C@@H](C(C)C)C(=O)N1C", "FALSE"],
  ["C/C=C/C[C@@H](C)[C@@H](O)[C@H]1C(=O)N[C@@H]([C@@H](C)O)C(=O)N(C)CC(=O)N(C)[C@@H](CC(C)C)C(=O)N[C@@H](CC(C)C)C(=O)N(C)[C@@H](CC(C)C)C(=O)N[C@@H](C)C(=O)N[C@H](C)C(=O)N[C@@H](C[C@H](C)COCC(=O)N2CCOCC2)C(=O)N[C@@H](CC(C)C)C(=O)N(C)[C@@H](C(C)C)C(=O)N1C", "FALSE"],
  ["C/C=C/C[C@@H](C)[C@@H](O)[C@H]1C(=O)N[C@@H]([C@@H](C)O)C(=O)N(C)CC(=O)N(C)[C@@H](CC(C)C)C(=O)N[C@@H](CC(C)C)C(=O)N(C)[C@@H](CC(C)C)C(=O)N[C@@H](C)C(=O)N[C@H](C)C(=O)N[C@@H](C[C@H](C)CN2CCOCC2)C(=O)N[C@@H](CC(C)C)C(=O)N(C)[C@@H](C(C)C)C(=O)N1C", "TRUE"],
  ["C/C=C/C[C@@H](C)[C@@H](O)[C@H]1C(=O)N[C@@H]([C@@H](C)O)C(=O)N(C)CC(=O)N(C)[C@@H](CC(C)C)C(=O)N[C@@H](CC(C)C)C(=O)N(C)[C@@H](CC(C)C)C(=O)N[C@@H](C)C(=O)N[C@H](C)C(=O)N[C@@H](CC(C)C)C(=O)N[C@@H](CC(C)C)C(=O)N(C)[C@@H](C(C)C)C(=O)N1C", "TRUE"],
  ["C/C=C/C[C@@H](C)[C@@H](O)[C@H]1C(=O)N[C@@H]([C@@H](C)O)C(=O)N(C)CC(=O)N(C)[C@@H](CC(C)C)C(=O)N[C@@H](CC(C)C)C(=O)N(C)[C@@H](CC(C)C)C(=O)N[C@@H](C)C(=O)N[C@H](C)C(=O)N[C@@H](C[C@H](C)COC(=O)NCCOC)C(=O)N[C@@H](CC(C)C)C(=O)N(C)[C@@H](C(C)C)C(=O)N1C", "TRUE"],
  ["C/C=C/C[C@@H](C)[C@@H](O)[C@H]1C(=O)N[C@@H]([C@@H](C)O)C(=O)N(C)[C@H](COC)C(=O)N(C)[C@@H](CC(C)C)C(=O)N[C@@H](CC(C)C)C(=O)N(C)[C@@H](CC(C)C)C(=O)N[C@@H](C)C(=O)N[C@H](C)C(=O)N[C@@H](C[C@H](C)COC(=O)N(C)CCOC)C(=O)N[C@@H](CC(C)C)C(=O)N(C)[C@@H](C(C)C)C(=O)N1C", "FALSE"]
]}
